Tested on: Streptococcus mutans
Test: Antibacterial activity against Streptococcus mutans 6715 assessed as growth inhibition at 10^-4 M after 24 hrs
Format: functional
Conditions: Streptococcus mutans, 6715, 24 h; read-out: GI
recorded.metric: inhibition of growth at 100 µM (%)
All answers are understood in %, so give the number only.

Ask | Any idea what its inhibition of growth at 100 µM is? The compound is Oc1ccc(O)c2ncccc12
Reply | 0

Ask | // query: CC(=O)c1ccc(O)c2ncccc12
Reply | 100

Ask | // repeat for COC(=O)Cc1ccc(O)c2ncccc12 and report
Reply | 100

Ask | Proceed to CCOC(=O)Cc1ccc(O)c2ncccc12
Reply | 100

---

Experiment: 1-Octanol-water partition coefficient, log P of the compound after 90 mins
Format: physicochemical
recorded.metric: logP at 1.5 h
Write the value as a bare number.

Ask | # logP at 1.5 h lookup, item Oc1ccc(O)c2ncccc12
Reply | 1.42

Ask | And CCOC(=O)Cc1ccc(O)c2ncccc12 ?
Reply | 2.26

Ask | Queued: O=Cc1ccc(O)c2ncccc12
Reply | 1.63

Ask | And then OCc1ccc(O)c2ncccc12 , what is it?
Reply | 1

Ask | Quick one: CC(=O)c1ccc(O)c2ncccc12
Reply | 1.8

Ask | What do we get for COCc1ccc(O)c2ncccc12 ?
Reply | 1.78

Ask | And the next one, Oc1ccc(I)c2cccnc12 ?
Reply | 3.27

Ask | Could you do the same for Oc1cccc2cccnc12 [OXYQUINOLINE] , please?
Reply | 1.94

Ask | Param item: Oc1ccc(F)c2cccnc12
Reply | 2.3

Ask | Repeat for the following compound: COC(=O)Cc1ccc(O)c2ncccc12
Reply | 1.59

Ask | Same lookup for N#CCc1ccc(O)c2ncccc12 , please.
Reply | 1.81

---

Tested on: Streptococcus mutans
Experiment: Antibacterial activity against Streptococcus mutans 6715 assessed as inhibition of plaque formation in human teeth at 10^-2 M after 48 hrs
Assay type: functional
Conditions: Streptococcus mutans, 6715, 48 h
Assign inhibition at 10000 µM to each entry below.
Quick reminder: number only, in %, skip the unit.

Ask | Quick one: inhibition at 10000 µM for N#CCc1ccc(O)c2ncccc12 ?
Reply | 0

Ask | Lookup CC(=O)c1ccc(O)c2ncccc12
Reply | 60

Ask | Try this compound next: Oc1cccc2cccnc12
Reply | 0

Ask | Next compound: Oc1ccc(O)c2ncccc12
Reply | 0

Ask | Same lookup for COC(=O)Cc1ccc(O)c2ncccc12 , please.
Reply | 0

Ask | What about CCOC(=O)Cc1ccc(O)c2ncccc12 ?
Reply | 0

Ask | Ok, now Oc1ccc(I)c2cccnc12
Reply | 20

Ask | Now give it for Oc1ccc(F)c2cccnc12 too.
Reply | 60

Ask | // next record O=Cc1ccc(O)c2ncccc12
Reply | 40

Ask | Param item: COCc1ccc(O)c2ncccc12
Reply | 20

---

System: Streptococcus mutans
Assay: Antibacterial activity against Streptococcus mutans 6715 assessed as growth inhibition at 10^-5 M after 48 hrs
Assay type: functional
Conditions: Streptococcus mutans, 6715, 48 h; read-out: GI
recorded.metric: inhibition of growth at 10 µM (%)
Value expressed in %; do not type the unit.

Ask | Fill in: inhibition of growth at 10 µM of Oc1ccc(I)c2cccnc12 is ___
Reply | 60

Ask | // query: CC(=O)c1ccc(O)c2ncccc12
Reply | 0

Ask | Field entry: Oc1ccc(F)c2cccnc12
Reply | 0

Ask | Same read-out for Oc1cccc2cccnc12 ?
Reply | 100

Ask | Consider next the compound CCOC(=O)Cc1ccc(O)c2ncccc12 in the same way.
Reply | 0

Ask | Cool, now COC(=O)Cc1ccc(O)c2ncccc12
Reply | 0
